System: Saccharomyces cerevisiae BY4741 SeMeCo community
Experiment: z-score of subpopulation abundance vs DMSO median, subpopulation auxotrophic for HLM; higher = larger share of this subpopulation than in DMSO controls
Details: 10 µM; 24 h; SM minimal medium; subpopulation (auxotrophy): HLM
measurement-name: z-score of subpopulation abundance

>>> recorded_number("CCCCN(CCCC)CC(O)c1cc(Cl)cc2c1-c1ccc(Cl)cc1/C2=C/c1ccc(Cl)cc1 (configuration not stated)")
-0.39
>>> recorded_number("C#C[C@]1(O)CC[C@H]2[C@@H]3CCC4=CCCC[C@@H]4[C@H]3CC[C@@]21C")
-0.46
>>> recorded_number("CC[C@H](c1ccc(O)cc1)[C@@H](CC)c1ccc(O)cc1")
-0.94
>>> recorded_number("C[C@H](Nc1ncnc2nc[nH]c12)c1cc2cccc(Cl)c2c(=O)n1-c1ccccc1")
0.18
>>> recorded_number("Cn1c(=O)c2c(ncn2CC2OCCO2)n(C)c1=O")
-0.9
>>> recorded_number("CC[C@H]1OC(=O)[C@H](C)[C@@H](O[C@H]2C[C@@](C)(OC)[C@@H](O)[C@H](C)O2)[C@H](C)[C@@H](O[C@@H]2O[C@H](C)C[C@H](N(C)C)[C@H]2O)[C@](C)(O)C[C@@H](C)C(=O)[C@H](C)[C@@H](O)[C@]1(C)O [Erythromycin thiocyanate]")
-0.68
>>> recorded_number("Cc1onc(-c2c(F)cccc2Cl)c1C(=O)N[C@@H]1C(=O)N2[C@@H]1SC(C)(C)[C@@H]2C(=O)O [Flucloxacillin sodium]")
-0.51
